Let's look at some molecules and their measured pIC50.
Tested on: MYB mRNA
Assay: Splicing RT-qPCR assay, MYB canonical (CJ) and alternative (AJ) junction mRNA
Type: cell-based
Conditions: Homo sapiens, decrease in canonical junction mRNA, A673 or K562 cells, 24 hours
pIC50: −log10 of the molar value.

{"molecule": "Cc1cn2cc(NC(=O)c3ccc(N4C[C@@H](C)N[C@@H](C)C4)c4ccnnc34)cc(F)c2n1 [Compound 161, 2,2,2-trifluoroacetate]", "system.tested": "MYB mRNA", "pIC50": "> 7.00"}
{"molecule": "COc1nc(NC(=O)c2ccc(N3C[C@@H](C)N[C@@H](C)C3)c3nccnc23)cn2cc(C)nc12", "system.tested": "MYB mRNA", "pIC50": "> 7.00"}
{"molecule": "COCCOc1ccc2c(N3CCC(N(C)C)CC3)ccc(C(=O)Nc3cc(F)c4nc(C)cn4c3)c2n1", "system.tested": "MYB mRNA", "pIC50": "6.00 to 7.00"}
{"molecule": "Cc1cn2cc(NC(=O)c3ccc(N4CCNCC4)c4ccnnc34)nc2c(C)n1", "system.tested": "MYB mRNA", "pIC50": "6.00 to 7.00"}
{"molecule": "COCCOc1ccc2c(N3C[C@@H](C)N[C@@H](C)C3)ccc(C(=O)Nc3cc(F)c4nc(C)cn4c3)c2n1", "system.tested": "MYB mRNA", "pIC50": "6.00 to 7.00"}

Prompt line: # assay system MYB mRNA: give pIC50 of CNC1CCN(c2ccc(C(=O)Nc3cc(F)c4nc(C)cn4c3)c3nnccc23)C1 (stereo not shown)
Response line: > 7.00

Prompt line: # assay system MYB mRNA: give pIC50 of Cc1cnc2c(C(=O)Nc3cc(F)c4nc(C)cn4c3)ccc(N3C[C@@H](C)N[C@@H](C)C3)c2n1
Response line: > 7.00

---

Tested on: HTT mRNA
Test: Gene panel canonical junction qPCR assay, HTT CJ mRNA decrease
Format: cell-based, human
Conditions: Homo sapiens, decrease in CJ mRNA levels, read-out: HTT IC50
pIC50: −log10 of the molar value.
quantity: pIC50

For orientation, consider the following solved cases.
{"compound": "Cc1cn2cc(NC(=O)c3sc(C4CCN(C)CC4)cc3F)cc(F)c2n1", "system.tested": "HTT mRNA", "quantity": "pIC50", "endpoint.result": "< 5.00"}
{"compound": "Cc1cn2cc(NC(=O)c3sc(C4CCNCC4)cc3F)cc(Cl)c2n1", "system.tested": "HTT mRNA", "quantity": "pIC50", "endpoint.result": "6.00 to 7.00"}
{"compound": "COc1cc(N2CCNC(C)C2)sc1C(=O)Nc1cc(F)c2nc(C)cn2c1 (centres unmarked)", "system.tested": "HTT mRNA", "quantity": "pIC50", "endpoint.result": "< 5.00"}
{"compound": "Cc1cn2cc(NC(=O)c3sc([C@@H]4CCN[C@H](C)C4)cc3F)cc(C(F)(F)F)c2n1", "system.tested": "HTT mRNA", "quantity": "pIC50", "endpoint.result": "< 5.00"}

Prompt line: Return pIC50 (reported value) for this compound: CCC1CN(c2cc(F)c(C(=O)Nc3cc(F)c4nc(C)cn4c3)s2)CCN1 (centres unmarked)
Response line: 5.00 to 6.00

Prompt line: Return pIC50 (reported value) for this compound: Cc1cn2cc(NC(=O)c3sc(C4CC(C)(C)NC(C)(C)C4)cc3F)cc(F)c2n1
Response line: 6.00 to 7.00

Prompt line: Return pIC50 (reported value) for this compound: Cc1cn2cc(NC(=O)c3cc(Cl)c(N4CCNC(C)C4)s3)cc(F)c2n1 (centres unmarked)
Response line: 6.00 to 7.00

Prompt line: Return pIC50 (reported value) for this compound: Cc1cn2cc(NC(=O)c3ccc(C4CCNCC4)s3)cc(F)c2n1
Response line: < 5.00

---

System: HTT mRNA
Test: Gene panel canonical junction qPCR assay, HTT CJ mRNA decrease
Format: cell-based, human
Details: Homo sapiens, decrease in CJ mRNA levels, read-out: HTT IC50
Let's look at some compounds and their measured IC50.

{"compound": "Cc1cn2nc(NC(=O)c3sc(C4CCNCC4)cc3F)nc2c(C)n1", "IC50": "< 100 nM"}

Prompt line: # assay system HTT mRNA: give IC50 of Cc1cn2cc(NC(=O)c3cc(Cl)c(C4CCNCC4)s3)cc(F)c2n1
Response line: 1000 to 10000 nM

Prompt line: # assay system HTT mRNA: give IC50 of Cc1cn2cc(NC(=O)c3sc([C@H]4CCN[C@H](C)C4)cc3F)cc(F)c2n1
Response line: 100 to 1000 nM

Prompt line: # assay system HTT mRNA: give IC50 of Cc1cn2cc(NC(=O)c3sc([C@H]4CCN[C@@H](C)C4)cc3F)cc(F)c2n1
Response line: 100 to 1000 nM

Prompt line: # assay system HTT mRNA: give IC50 of CC1=NC2C(F)=CC(NC(=O)c3sc(C4CCNCC4)cc3F)=CC2O1 (stereo not shown)
Response line: > 10000 nM

Prompt line: # assay system HTT mRNA: give IC50 of Cc1cn2cc(NC(=O)c3sc(N4CCNC(C)C4)cc3F)nc2c(C)n1 (stereo not shown)
Response line: > 10000 nM

Prompt line: # assay system HTT mRNA: give IC50 of Cc1cn2cc(NC(=O)c3sc(N4CCN5CCCC5C4)cc3F)cc(F)c2n1 (stereo not shown)
Response line: > 10000 nM

Prompt line: # assay system HTT mRNA: give IC50 of Cc1cn2cc(NC(=O)c3sc(C4C[C@@H](C)N[C@@H](C)C4)cc3F)cc(F)c2n1 (stereo partly shown)
Response line: 1000 to 10000 nM

Prompt line: # assay system HTT mRNA: give IC50 of Cc1cn2cc(NC(=O)c3sc(C4CCNCC4)cc3F)cc(F)c2n1
Response line: 1000 to 10000 nM

---

Tested on: MYB mRNA
Assay: Splicing RT-qPCR assay, MYB canonical (CJ) and alternative (AJ) junction mRNA
Format: cell-based
Details: Homo sapiens, decrease in canonical junction mRNA, A673 or K562 cells, 24 hours
quantity: IC50

For orientation, consider the following solved cases.
{"compound": "Cc1cn2cc(NC(=O)c3ccc(N4C[C@@H](C)N[C@@H](C)C4)c4nccnc34)nc(Cl)c2n1", "IC50": "< 100 nM"}
{"compound": "COc1nc2ccc(NC(=O)c3ccc(N4C[C@@H](C)N[C@@H](C)C4)c4nccnc34)cc2o1", "IC50": "1000 to 10000 nM"}
{"compound": "Cc1cn2cc(NC(=O)c3ccc([C@H]4C[C@@H](C)N[C@@H](C)C4)c4nccnc34)cc(F)c2n1", "IC50": "100 to 1000 nM"}

Continue with the compound presented below.
Prompt line: Return IC50 (reported value) for this compound: Cc1cn2cc(NC(=O)c3ccc(N4CCNCC4)c4nnccc34)cc(F)c2n1 [Compound 166, 2,2,2-trifluoroacetate]
Response line: > 10000 nM

---

System: HiBiT-tagged HTT protein
Assay: HiBiT protein abundance assay, HTT (K562 HiBiT knock-in cells)
Type: cell-based, human
Details: 24 hours
Where a name gives a salt, the structure may show the parent alone.
Let's look at some molecules and their measured IC50.

For orientation, consider the following solved cases.
{"molecule": "Cc1cn2cc(NC(=O)c3ccc(N4CCNCC4)c4ccnnc34)cc(C#N)c2n1 [Compound 167, trifluoroacetic acid salt]", "quantity": "IC50", "endpoint.result": "1 to 10 µM"}
{"molecule": "CN[C@H]1CCN(c2ccc(C(=O)Nc3cc(F)c4nc(C)cn4c3)c3nc(OC)cnc23)C1 [Compound 203, trifluoroacetic acid]", "quantity": "IC50", "endpoint.result": "1 to 10 µM"}

Prompt line: Return IC50 (reported value) for this molecule: Cc1ccc2c(N3CCC4(CCN4)CC3)ccc(C(=O)Nc3cc(F)c4nc(C)cn4c3)c2n1 [Compound 195]
Response line: 0.1 to 1 µM

Prompt line: Return IC50 (reported value) for this molecule: C[C@@H]1CN(c2ccc(C(=O)Nc3ccc4nc(N(C)C)oc4c3)c3nccnc23)C[C@H](C)N1 [Compound 290]
Response line: > 10 µM

---

System: HiBiT-tagged HTT protein
Test: HiBiT protein abundance assay, HTT (K562 HiBiT knock-in cells)
Type: cell-based, human
Details: 24 hours
Let's look at some compounds and their measured IC50.

Prompt line: Return IC50 (reported value) for this compound: Cc1cn2cc(NC(=O)c3ccc(N4C[C@@H](C)N(O)[C@@H](C)C4)c4nccnc34)cc(F)c2n1
Response line: 1 to 10 µM

Prompt line: Return IC50 (reported value) for this compound: COc1ccc2c(N3C[C@@H](C)N[C@@H](C)C3)ccc(C(=O)Nc3cc(F)c4nc(C)cn4c3)c2n1
Response line: 1 to 10 µM

All values here come from patent US20240409536A1.
